These data points were gathered from PubChem BioAssay AID743238.

Give activation for every item shown.
test: activators of inactive X chromosome reactivation, primary screen, imaging, XiGFP fibroblasts, GFP high-content imaging, set 2 (AID 743238); details: XiGFP mouse fibroblasts, % GFP-positive cells imaging, 3 d; at 7.58 µM; hits give high values; cells co-treated with 5-aza-dC sensitizer; scaled so ellipticine positive control = 100%;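 also: 0% = median of on-plate neutral control wells and 100% = ellipticine 6 µM median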
The whole screen tested about 360,000 compounds, of which about 200 (0.056%) were called active. This excerpt belongs to a sample that is enriched for actives.
Numbers only, in %.

Below, each entry is followed by its recorded activation result.
O=C(NC1Cc2ccccc2C1)[C@H]1[C@H](CO)[C@H]2Cn3c(ccc(C4=CCCCC4)c3=O)[C@H]2N1CC1CC1; 0.397
C[C@@H]1CN([C@H](C)CO)C(=O)c2cccc(NS(C)(=O)=O)c2O[C@@H]1CN(C)S(=O)(=O)c1cccs1; -1.35
O=C(C[C@@H]1CC[C@H](NS(=O)(=O)c2ccc(F)cc2)[C@@H](CO)O1)NCc1ccccc1F; -0.283
C[C@@H]1CN([C@@H](C)CO)S(=O)(=O)c2ccc(Br)cc2O[C@@H]1CN(C)C(=O)CN(C)C; 0.922
CC=Cc1ccc2n(c1=O)C[C@@H]1[C@@H](CO)[C@H](C(=O)NC3CCCC3)[C@H]2N1C(=O)c1cnccn1 (mixture of isomers); 0.002

Hey, quick one: what's activation for each of these?
1. OC[C@@H]1[C@@H](c2ccccc2)C2(CN(Cc3cccc(F)c3)C2)N1CC1CCCC1
2. Cc1ccc(-c2ccc([C@H]3[C@H]4CN(S(=O)(=O)c5cccc(F)c5)CC(=O)N4[C@H]3CO)cc2)cc1
3. CS(=O)(=O)N1[C@H](C#N)[C@H](c2ccccc2-c2ccc(F)cc2)[C@@H]1CO

[reply]
[-0.0685, 0.287, 0.0935]

Give measured activation for every item shown.
1. COc1ccc(S(=O)(=O)N(C)C[C@@H]2Oc3ccc(NC(=O)Cc4ccccc4)cc3CC(=O)N([C@@H](C)CO)C[C@H]2C)cc1
2. CO[C@H]1CN(C)C(=O)c2cc(NS(C)(=O)=O)ccc2OC[C@@H](C)N(C)C[C@@H]1C
3. CO[C@@H]1CN(C)C(=O)c2ccc(NC(=O)C3CC3)cc2OC[C@H](C)N(C(=O)c2ccccc2)C[C@@H]1C
4. O=C(C[C@@H]1C=C[C@H](NC(=O)Nc2ccccc2F)[C@H](CO)O1)NCc1ccc(F)cc1

[reply]
-0.0685
-0.465
0.643
0.215

Kindly give each listed record's activation.
1. O=C([C@@H]1[C@@H](CO)[C@@H]2Cn3c(ccc(C4=CCCC4)c3=O)[C@H]1N2C(=O)c1ccncc1)N1CCCCC1
2. O=C(NCc1ccc(F)cc1)[C@@H]1[C@@H](CO)[C@@H]2Cn3c(cccc3=O)[C@@H]2N1C(=O)c1cccnc1
3. CCCNC(=O)N1CC(=O)N2[C@H](C1)[C@@H](c1ccc(C#Cc3ccccc3)cc1)[C@@H]2CO
4. CCNC(=O)C[C@@H]1C=C[C@@H](NC(=O)C2CCOCC2)[C@@H](CO)O1

[reply]
1: 0.116; 2: 0.173; 3: -0.0025; 4: 0.276

* * *

Would you mind telling me the reported activation of each entry?
assay: activators of inactive X chromosome reactivation, primary screen, imaging, XiGFP fibroblasts, GFP high-content imaging, set 2 (AID 743238); conditions: XiGFP mouse fibroblasts, % GFP-positive cells imaging, 3 d; at 7.58 µM; hits give high values; cells co-treated with 5-aza-dC sensitizer; scaled so ellipticine positive control = 100%;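 also: 0% = median of on-plate neutral control wells and 100% = ellipticine 6 µM median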
Out of some 360,000 compounds screened, about 200 (0.056%) were called active. This excerpt belongs to a sample that is enriched for actives.

CO[C@@H]1CN(C)C(=O)c2cc(NC(=O)c3cccc(F)c3)ccc2OC[C@H](C)N(C)C[C@@H]1C; -0.118% (inactive)
CO[C@@H]1CN(C)C(=O)c2cc(NC(=O)NC3CCCC3)ccc2OC[C@H](C)NC[C@H]1C; 0.41% (inactive)
Cc1ccc(S(=O)(=O)Nc2ccc3c(c2)C(=O)N([C@@H](C)CO)C[C@H](C)[C@@H](CN(C)CC2CC2)O3)cc1; -0.069% (inactive)
O=C(C[C@@H]1CC[C@@H](NS(=O)(=O)c2ccc(F)cc2)[C@H](CO)O1)NCc1ccc(Cl)c(Cl)c1; 0.0265% (inactive)
C[C@@H]1CCCCO[C@H](CN(C)C(=O)CCCN(C)C)[C@H](C)CN([C@@H](C)CO)C(=O)c2cc(NS(=O)(=O)c3ccc(Cl)cc3)ccc2O1; 0.114% (inactive)
CCCNC(=O)NC[C@H]1[C@H](c2ccc(C3=CCCCC3)cc2)[C@H](CO)N1C(C)=O; -0.0205% (inactive)
C=C(C)C[C@H]1CCn2cc(nn2)COCCNC1=O; 0.348% (inactive)
CC[C@H]1CC=CC[C@@H](C)Oc2ccccc2C(=O)N(C)[C@H](Cc2ccccc2)C(=O)N1 (mixture of isomers); -0.034% (inactive)
O=C(C[C@@H]1CC[C@@H]2[C@H](COC[C@H](O)CN2C(=O)C2CC2)O1)NCc1ccncc1; 0.085% (inactive)
C[C@@H]1CCCCO[C@@H](CN(C)Cc2ccc(C(=O)Nc3ccccc3N)cc2)[C@H](C)CN([C@H](C)CO)C(=O)c2cc(N(C)C)ccc2O1; 2.13% (inactive)

Parameters: items (list). Returns: activation for each item.
1. C[C@H](O)C#Cc1ccc2c(c1)O[C@H](CN(C)Cc1ccccn1)[C@@H](C)CN([C@@H](C)CO)S2(=O)=O
2. C[C@H]1CCCCO[C@H](CN(C)C(=O)Nc2ccc(F)cc2)[C@@H](C)CN([C@@H](C)CO)C(=O)c2cc(NC(=O)CCC(F)(F)F)ccc2O1
3. O=C(C[C@@H]1CC[C@@H](NC(=O)c2ccc3c(c2)OCO3)[C@H](CO)O1)NCc1ccc(F)cc1
4. COc1ccc(NC(=O)Nc2ccc3c(c2)[C@H]2C[C@H](CC(=O)NC4CCCC4)O[C@@H](CO)[C@H]2O3)cc1
5. N#C[C@@H]1[C@H](c2ccccc2-c2cccc(F)c2)[C@@H](CO)N1C(=O)C1CCCC1
6. C[C@@H]1CN([C@H](C)CO)C(=O)Cc2cc(NC(=O)Nc3ccc4c(c3)OCO4)ccc2O[C@@H]1CN(C)C(=O)Nc1ccccc1

[reply]
["-0.095% (inactive)", "-0.105% (inactive)", "0.149% (inactive)", "4.51% (inactive)", "0.007% (inactive)", "-0.384% (inactive)"]

* * *

assay: activators of inactive X chromosome reactivation, primary screen, imaging, XiGFP fibroblasts, GFP high-content imaging, set 2 (AID 743238); conditions: XiGFP mouse fibroblasts, % GFP-positive cells imaging, 3 d; at 7.58 µM; hits give high values; cells co-treated with 5-aza-dC sensitizer; scaled so ellipticine positive control = 100%;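 also: 0% = median of on-plate neutral control wells and 100% = ellipticine 6 µM median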
In all, about 360,000 compounds went through this assay and about 200 (0.056%) were called active. The entries come from a sample that favours actives as a whole.
recorded.metric: activation (%)
Numbers only, in %.

For orientation, consider the following solved cases.
C[C@H]1CN([C@@H](C)CO)C(=O)c2cc(C3=CCCC3)cnc2O[C@H]1CN(C)Cc1ccccc1C(=O)O; -0.072
COc1ccc2c3c(n(C)c2c1)[C@H](CO)N(CC1CCOCC1)CC31CCN(C(C)=O)CC1; 0.008
CNC[C@@H]1Oc2ccc(NC(=O)C3CCCCC3)cc2C(=O)N([C@@H](C)CO)C[C@H]1C; -1.11
C[C@@H]1CN([C@@H](C)CO)C(=O)c2cc(NC(=O)Nc3cccc4ccccc34)ccc2O[C@H]1CN(C)Cc1ccc(Oc2ccccc2)cc1; 0.262
C[C@@H]1CC=CC[C@@H](c2ccccc2)NC(=O)[C@@H](Cc2ccccc2)N(C)C(=O)c2ccccc2O1 (mixture of isomers); 0.0795
O=C(c1ccccn1)N1CC2(C1)[C@@H](c1ccccc1)[C@@H](CO)N2C(=O)C1CCCCC1; -0.0175

For every item in the list below, what is its measured activation?
1. O=C(C1CCCC1)N1CC(=O)N2[C@@H](CO)[C@@H](c3ccc(-c4cccnc4)cc3)[C@@H]2C1
2. CCCNC(=O)C[C@H]1C[C@@H]2c3cc(NC(=O)COC)ccc3O[C@@H]2[C@@H](CO)O1

[reply]
1. 0.207
2. -0.017

* * *

assay: activators of inactive X chromosome reactivation, primary screen, imaging, XiGFP fibroblasts, GFP high-content imaging, set 2 (AID 743238); conditions: XiGFP mouse fibroblasts, % GFP-positive cells imaging, 3 d; at 7.58 µM; hits give high values; cells co-treated with 5-aza-dC sensitizer; scaled so ellipticine positive control = 100%;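 also: 0% = median of on-plate neutral control wells and 100% = ellipticine 6 µM median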
Out of some 360,000 compounds screened, about 200 (0.056%) were called active. What follows is part of a selection rich in actives, with near analogues and random picks from the rest.
recorded.metric: activation (%)
Numbers only, in %.

Check out these entries, answers already filled in.
COCCN(C[C@H]1[C@@H](c2ccccc2)[C@H](CO)N1C(=O)C1CCC1)C(C)=O; 0.023
C[C@@H]1CN([C@@H](C)CO)C(=O)CCCn2cc(nn2)CO[C@@H]1CN(C)S(=O)(=O)c1cccc(F)c1; -0.223

Batch: activation for all items listed.
1. Cc1ccccc1-c1ccc([C@H]2[C@@H](CO)N3C(=O)CN(C(=O)c4ccncc4)C[C@@H]23)cc1
2. COc1ccc2c3c(n(C)c2c1)[C@H](CO)N(Cc1ccccc1)CC31CCN(C)CC1
3. C[C@@H]1CCCCO[C@@H](CN(C)Cc2ccncc2)[C@@H](C)CN([C@H](C)CO)C(=O)c2cc(NS(=O)(=O)c3cccs3)ccc2O1
4. O=C(C[C@@H]1C[C@H]2c3cc(NC(=O)Nc4ccccc4F)ccc3O[C@H]2[C@@H](CO)O1)NC1CCCCC1

[reply]
1. -0.015
2. 0.287
3. 0.415
4. -0.047

Provide reported activation for each item, in the same order as listed.
1. CCCC#Cc1cnc2c(c1)C(=O)N([C@H](C)CO)C[C@H](C)[C@@H](CN(C)C(=O)c1cccnc1)O2
2. CCC(=O)Nc1ccc2c(c1)C(=O)N(C)C[C@H](OC)[C@H](C)CN(C(=O)c1ccccc1F)[C@@H](C)CO2

[reply]
[-0.912, 0.375]
